# target_desc: VBC / SMARCA2^BD ternary complex (Homo sapiens, UniProt P40337+P51531)
# Construct: VHL (54-213), ElonginB (17-112) ElonginC (1-104); SMARCA2^BD 1373–1511 ∆1400–1417; His6 (N, cleaved yes); made in house
# Sequence (P40337 54-213): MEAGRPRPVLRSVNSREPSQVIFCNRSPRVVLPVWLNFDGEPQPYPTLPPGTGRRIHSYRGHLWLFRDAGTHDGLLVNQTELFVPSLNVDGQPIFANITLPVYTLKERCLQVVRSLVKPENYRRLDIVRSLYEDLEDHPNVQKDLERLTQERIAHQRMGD
# Sequence (P51531 other isoform, or with tags, fused parts or gaps): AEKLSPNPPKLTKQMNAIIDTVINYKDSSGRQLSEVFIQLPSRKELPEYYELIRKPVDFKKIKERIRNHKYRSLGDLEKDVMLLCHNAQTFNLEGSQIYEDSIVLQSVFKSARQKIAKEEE
# Sequence (Q15370 1-104, further chain): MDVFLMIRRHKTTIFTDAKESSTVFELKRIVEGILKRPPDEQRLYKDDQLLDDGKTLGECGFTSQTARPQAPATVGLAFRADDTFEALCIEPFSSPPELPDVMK
# Sequence (Q15369 17-112, further chain): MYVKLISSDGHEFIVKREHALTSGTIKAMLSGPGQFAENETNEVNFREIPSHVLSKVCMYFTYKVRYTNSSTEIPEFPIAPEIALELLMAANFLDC
# test: SPR ternary complex binding, VBC surface with preformed PROTAC/SMARCA2 bromodomain complex
measure: α (cooperativity, KLP/KLPT)
Give bare numbers.

molecule	α (cooperativity, KLP/KLPT)
Cc1ncsc1-c1ccc(CNC(=O)C2C[C@@H](O)CN2C(=O)C(NC(=O)C2(F)CC2)C(C)(C)C)c(OCCc2ccc(CN3CCN(c4cc(-c5ccccc5O)nnc4N)CC3)cc2)c1 (stereo in doubt) [Compound 11, reference compound]	0.55
Cc1ncsc1-c1ccc([C@H](C)NC(=O)[C@@H]2C[C@@H](O)CN2C(=O)[C@@H](NC(=O)c2cccc(N3CCN(c4cc(-c5ccccc5O)nnc4N)CC3)n2)C(C)(C)C)cc1 [Compound 2]	6.5

Attention now shifts to the item below.
// query // fetch α (cooperativity, KLP/KLPT) given entry Cc1ncsc1-c1ccc([C@H](C)NC(=O)[C@@H]2C[C@@H](O)CN2C(=O)[C@@H](NC(=O)c2cccc(N3CCN(c4nc(-c5ccccc5O)nnc4N)CC3)n2)C(C)(C)C)cc1 [Compound 9]
// result 0.32
